target: Kappa-type opioid receptor (Homo sapiens); assay: blocks the human kappa opioid receptor, Maybridge compounds (AID 652031); settings: OPRK1 cells, antagonist mode, fluorescence readout; at 9 µM; hits give high values
The whole screen tested about 16,000 compounds, of which about 70 (0.4%) were called active. The entries come from a sample that favours actives as a whole.
endpointName: inhibition (%)
Unit % implied. Number only.

Reference set, count: 8
S=C(Nc1cccnc1)N1CCCN(Cc2ccc(Cl)cc2Cl)CC1; 4.7
CCSC(=O)NCc1ccccc1; -12.7
O=c1[nH]cc(Br)c(=O)[nH]1; 6.1
COC(=O)c1ccccc1N(C)C(=O)c1cc(OC)c(OC)c(OC)c1; 2.6
O=C(CSc1ccc(Cl)cc1)NCCSCc1ccco1; 15.7
N#C/C(=C\c1cccn1S(=O)(=O)c1ccccc1)C(=O)c1ccccc1; 7.4
Cc1nc(C(F)(F)F)ccc1NC(=O)/C=C\C(=O)O; -4.6
CC(C)(C)C(=O)Nc1c(Br)c(C2CC2)nn1-c1ccccc1; 4.1

QUERY: Record request: inhibition value, item O=C(CSC1=NCCc2ccccc21)Nc1ccc(F)cc1F
RESULT: -6.1

QUERY: I would be grateful if you could share the reported inhibition for C=CCn1c(SCC(=O)Nc2nnc(-c3cccs3)s2)nnc1-c1ccco1 .
RESULT: 8.8

QUERY: What inhibition value was documented for this molecule, O=C(CSc1nnc(-c2ccncc2)n1Cc1ccccc1)Nc1nnc(-c2ccco2)s1 ?
RESULT: 2.3

QUERY: What value of inhibition has been recorded for this entry: CC(C)(C)c1cc(NC(=O)/C(C#N)=C/c2cccc(Cl)c2Cl)c(C(N)=O)s1
RESULT: -7.1

QUERY: What does the data say about its inhibition? Entry: CCCN(CCC)S(=O)(=O)c1ccc(C(=O)Oc2c(C)cccc2OC)cc1
RESULT: -3.1

QUERY: Consider the molecule CCOC(=O)/C(C#N)=C/c1ccc(-c2nccs2)cc1C(C)(C)C and give its measured inhibition.
RESULT: -2.8

QUERY: Given the entry O=C(Nc1ccccc1C(=O)NC1CCSC1)c1cccc(Cl)c1 (stereo not drawn) , report its measured inhibition.
RESULT: -15

QUERY: Looking for the measured inhibition of Cc1ccccc1C(=O)NNC(=O)c1ccccc1C1=NCCCN1 , can you help?
RESULT: -4.3

QUERY: Quick one: inhibition of O=C(c1ccccc1I)c1c[nH]c2ccccc12 ?
RESULT: 2.4

====

Overview of reported inhibition across a group of compounds:
target: Kappa-type opioid receptor (Homo sapiens) (UniProt P41145); test: blocks the human kappa opioid receptor, Maybridge compounds (AID 652031); conditions: OPRK1 cells, antagonist mode, fluorescence readout; at 9 µM; hits give high values
Sequence (P41145 whole entry, looked up): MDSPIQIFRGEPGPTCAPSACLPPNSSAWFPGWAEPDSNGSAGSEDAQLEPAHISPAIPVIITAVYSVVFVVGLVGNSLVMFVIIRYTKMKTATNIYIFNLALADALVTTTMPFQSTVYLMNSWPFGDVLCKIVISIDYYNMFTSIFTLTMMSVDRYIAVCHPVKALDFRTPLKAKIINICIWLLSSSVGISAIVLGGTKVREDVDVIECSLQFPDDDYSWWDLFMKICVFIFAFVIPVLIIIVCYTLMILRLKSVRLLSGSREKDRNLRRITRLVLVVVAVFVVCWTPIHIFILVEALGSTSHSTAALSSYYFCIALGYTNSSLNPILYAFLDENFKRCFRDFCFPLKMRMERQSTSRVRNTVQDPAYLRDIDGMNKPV
Hit rate of the full screen: of about 16,000 compounds, about 70 (0.4%) were called active. This excerpt belongs to a sample that is enriched for actives.
// units = %; emit number, no label

# count of solved cases: 4
O=[N+]([O-])c1ccc2ncccc2c1-n1cccc1; -23.5
Oc1ccc(-n2cncn2)cc1; -0.4
CC(C)NC(=O)NNc1c(Cl)cncc1Cl; 4.6
c1ccc(C2=NCCN=C2c2ccccc2)cc1; -1.9

QUERY: Look at this compound and give its reported inhibition. N/C(=N/OC(=O)NC(=O)c1c(Cl)cccc1Cl)c1ccc(F)cc1F
RESULT: -5.4

QUERY: # inhibition lookup, item Cc1ccc(S(=O)(=O)NC(=O)NNc2ncnc3scc(-c4ccccc4)c23)cc1
RESULT: -34.5
